Documented % Inhibition across a set of compounds
tested on: P. falciparum stage V gametocytes; set-up: BacTiter-Glo ATP luminescence viability of purified stage V gametocytes in 384-well plates, per cent inhibition versus DMSO; conditions: 48 h, 5 µM; inhibitor
The campaign covered roughly 13,000 compounds. About 3,200 (25%) showed an effect of 50% or more. Some of the results follow.
Note: unit % is implicit; provide only the numeric part.

Below are worked cases with known answers.
Compound	Assay Endpoint	Assay Value
Cc1cc(NCCC(=O)Nc2ccccc2)nc(NCCc2ccccc2)n1 [TCMDC-134772]	% Inhibition	51
Cc1ccc(C(NC(=O)Cc2ccccc2)c2ccc3cccnc3c2O)cc1 (stereo not drawn) [TCMDC-125551]	% Inhibition	6.84
CC1(C)N=C(N)N=C(N)N1OCCc1cccc2ccccc12 [TCMDC-131663]	% Inhibition	2.124
Cn1nc(-c2ccc(NC(=O)Nc3cc(C(F)(F)F)ccc3F)cc2)c2cnc(NCCc3cnc[nH]3)nc21 [TCMDC-141621]	% Inhibition	12.4
O=C1NC(C(=O)Nc2ccccc2)C(c2ccccc2)S1 (stereo not drawn) [TCMDC-131740]	% Inhibition	2.02
COc1ccc2nccc([C@@H](O)CN3CCC(NC(=O)/C=C/c4cc(F)cc(Br)c4)CC3)c2c1 [TCMDC-141031]	% Inhibition	-7.765
c1ccc(C(OCCC2CCN(Cc3cccc4cccnc34)CC2)c2ccccc2)cc1 [TCMDC-136047]	% Inhibition	-51.83
O=C(NCc1ccccn1)C(c1cc2ccccc2o1)N1CCN(C(c2ccccc2)c2ccccc2)CC1 (stereo not drawn) [TCMDC-141024]	% Inhibition	9.637

Consider now this further compound.
Q: // lookup % Inhibition | system=P. falciparum stage V gametocytes | key= O=C(Cc1ccccc1)NC(c1ccccc1)c1ccc2cccnc2c1O (stereo not drawn) [TCMDC-124383]
Result: 92.16

* * *

test system: P. falciparum stage V gametocytes; set-up: BacTiter-Glo ATP luminescence viability of purified stage V gametocytes in 384-well plates, per cent inhibition versus DMSO; settings: 48 h, 5 µM; inhibitor
Out of some 13,000 compounds screened, about 3,200 (25%) showed an effect of 50% or more. The list shows a part of the results.
Use criterion met when the recorded % Inhibition is no lower than 10%; use criterion not met when it is lower.

Q: Determine whether measured % Inhibition meets or exceeds 10% for COc1ccc(CC(Cc2ccc(OC)cc2)NCC(O)c2cccc(Cl)c2)cc1 (centres unmarked) [TCMDC-131543]
Result: criterion met

Q: Can you check CCCCCCCSc1ccc(CC(C)NCC(O)c2cccc(Cl)c2)cc1 (centres unmarked) [TCMDC-131493] next?
Result: criterion met

Q: Same thing, different molecule: CC(Cc1ccc(CSC(C)C)cc1)NCC(O)c1cccc(Cl)c1 (centres unmarked) [TCMDC-131525]
Result: criterion met

Q: Please answer likewise for Cc1ccc(CCC(C)NCC(O)c2cccc(Cl)c2)cc1 (centres unmarked) [TCMDC-131436]
Result: criterion met

Q: // query: CC(Cc1ccc(Oc2ccc(Cl)cc2)cc1)NCC(O)c1cccc(Cl)c1 (centres unmarked) [TCMDC-131511]
Result: criterion not met

* * *

The entries below are paired with their reported % Inhibition.
test system: P. falciparum stage V gametocytes; parameters: BacTiter-Glo ATP luminescence viability of purified stage V gametocytes in 384-well plates, per cent inhibition versus DMSO; details: 48 h, 5 µM; inhibitor
About 3,200 (25%) of roughly 13,000 compounds showed an effect of 50% or more. Some of the results follow.
Dear colleague, please return just the value in %, with no unit written.

Compound	Assay Endpoint	Assay Value
CC(=NN=C(N)N)c1ccc2c(c1)Cc1ccccc1-2 [TCMDC-137666]	% Inhibition	27.22
COc1cc(Cc2cnc(N)nc2N)c2c(c1OC)OC(C)(C)C=C2 [TCMDC-138038]	% Inhibition	-2.785
CC(=NN=C(N)N)c1ccc2c(ccc3ccccc32)c1 [TCMDC-137669]	% Inhibition	96.96
CN1CCC(c2c[nH]c3ccc(NC(=O)Nc4ccc(-c5ccncc5)cc4Cl)cc23)CC1 [TCMDC-139180]	% Inhibition	-1.977
Cc1ccc2nc(C)cc(Nc3ccccc3O)c2c1 [TCMDC-123660]	% Inhibition	-31.17

Q: Field request: % Inhibition | item: COc1ccc2nccc([C@@H](O)CN3CCC(NCc4ccc5c(n4)NCCC5)CC3)c2c1 [TCMDC-141460]
Result: 44.65

Q: What would you report for COc1ccc2nccc([C@@H](O)CN3CCC(NC(=O)/C(=C/c4ccccc4)c4ccc(-c5ccccc5)cc4)CC3)c2c1 [TCMDC-141115] ?
Result: 0.831

Q: Try COC(=O)c1ccc(CC(C)NCC(O)c2ccc3ccc4ccccc4c3c2)cc1 (stereo not drawn) [TCMDC-131429] next.
Result: 28.11

Q: Request: O=C(Nc1ccc(I)cc1)N1CCc2sccc2C1CN1CCCCC1 (stereo not drawn) [TCMDC-136648]
Result: -39.22

This collection of values is drawn from paper PMC4552634.
